# credit: patent US20220031822A1

Target: T1, human BCMA (B cell maturation antigen) (human, UniProt Q02223 1-184)
T1 construct: whole, on cells; also called hBCMA; TNFRSF17
T1 sequence (looked up): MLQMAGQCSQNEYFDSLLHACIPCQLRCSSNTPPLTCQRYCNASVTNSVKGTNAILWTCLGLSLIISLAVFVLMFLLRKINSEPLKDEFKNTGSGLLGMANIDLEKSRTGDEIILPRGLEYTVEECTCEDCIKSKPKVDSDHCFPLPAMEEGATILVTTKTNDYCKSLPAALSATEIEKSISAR
Assay: flow cytometry, FN3 domain titration on HEK293F cells transiently expressing human BCMA, anti-His Alexa-488 detection, PRISM one-site specific binding fit
Parameters: unit not given here
A collection of binders and their measured Bmax
Keep it simple and answer with nothing but the number.

Examples with their reported Bmax follow.
Binder	Observed Result
C08 BCMA-specific FN3 domain (designed binder, Detected with an anti-His mAb, so the protein tested carried a His tag) MLPAPKNLVVSRITEDSARLSWTAPDAAFDSFPIRYIETLIWGEAIWLYVPGSERSYDLTGLKPGTEYTVVISGVKGGESSYPLIAAFTT	57900
A08 BCMA-specific FN3 domain (designed binder, Detected with an anti-His mAb, so the protein tested carried a His tag) MLPAPKNLVVSRITEDSARLSWTAPDAAFDSFPIRYIETLIWGEAIWLDVPGSERSYDLTGLKPGTEYAVVITGVKGGRFSSPLVASFTT	101000

Using the record for G11 BCMA-specific FN3 domain (designed binder, Detected with an anti-His mAb, so the protein tested carried a His tag) MLPAPKNLVVSRITEDSARLSWTAPDAAFDSFWIRYVERLVWGEAIHLHVPGSERSYDLTGLKPGTEYVVVISGVKGGWESTPLVAPFTT , state its measured Bmax.
60700

Quickly give me recorded Bmax for E09 BCMA-specific FN3 domain (designed binder, Detected with an anti-His mAb, so the protein tested carried a His tag) MLPAPKNLVVSRVTEDSARLSWTAPDAAFDSFRIRYVEVIAWGEAIWLVVPGSERSYDLTGLKPGTEYVVVIDGVKGGKTSIPLIAHFTT
73600
